- Measured on: RSV A2 pre-F (RSV A2)
- Assay notes: ELISA
Metric name: EC50 (µg/mL)
Report as a plain number; the unit µg/mL is understood.

Req: Consider the binder F6-56 (antibody, V domains shown) VH: QVQLVESGGDVVRPGTSLRLSCAASGFAFRSHALHWVRQAPGKGLEWVSVISYDGGHTNSADSVKGRFTVSRDNSKNILFLQMNSLRIEDTAVYFCARSEGSYRSWPGYFYYMDVWGNGTTVTVSS VL: QSALTQPASVSGSPGQSITISCIGTSSDVGGYYYVSWYQQHPGKAPKLIIFDVSDRPSGVSSRFSGSQSGNTASLTISGLQAEDEADYYCNSYSSSTTPYVFGSGTKVTVL and give its measured EC50.
Resp: 0.0141

Req: Next: F6-38 (antibody, V domains shown) VH: QVQLEESGGGVVQPGRSLTLSCAASGFTLKNYAIHWVRQAPGKGLEWVAVTAYDGFTSYYADSVKSRITISRDNSKNTAYLHLNNVRDDDAAFYYCARGGEGAFSWLGYLQYMDVWGRGTTVAVSS VL: QSTLTQPASASGSPGQSITISCTGTSNDIGSYTYVSWYQHHPGKAPKLMIYDVNERPSGISHRFSGSKSGNTASLTISGLQPEDEADYYCNSYTINNTLKFGGGTRLTVL
Resp: 0.00712

Req: Next: MEDI8897 (antibody, V domains shown) VH: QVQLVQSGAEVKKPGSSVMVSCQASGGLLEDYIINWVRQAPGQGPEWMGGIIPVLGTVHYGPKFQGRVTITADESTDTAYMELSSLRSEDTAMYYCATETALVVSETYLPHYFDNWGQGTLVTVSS VL: DIQMTQSPSSLSAAVGDRVTITCQASQDIVNYLNWYQQKPGKAPKLLIYVASNLETGVPSRFSGSGSGTDFSLTISSLQPEDVATYYCQQYDNLPLTFGGGTKVEIKR
Resp: 0.0146

Req: Next: F6-47 (antibody, V domains shown) VH: QVQLLESGGNVVQPGRSLSLSCVASGFALKSYAVHWVRQAPGKGLEWVAFVPYDAVTNYYADSVKGRFTVSRDISKNTVNLHMNRLMGEDTAVYFCARGATSGSYSFLGYNYYMDVWGRGTAVTVSS VL: QSALTQPASVSGSPGQPITISCTGTSSDVGAYTYVSWYQHHPGKAPKLILFDVTDRPSGVSHRFSGSKSGNTASLTISGLQSEDEAEYYCSSYTDRNTIVFGGGTTLTVL
Resp: 0.00998

Req: Next: F6-63 (antibody, V domains shown) VH: QVQVVESGGGVVEPGGSLSLSCAASGFSFKMHAMHWVRQAPGKGLEWVAFIPYDGSSQYYADSVKGRFTIYRDNFKNTLYLQMNSLRVEDTSLYYCARGGEEGAWSWIGYNSYMDVWGRGTAVTVSS VL: QSALTQPASVSGSPGQSITISCSGTSSDVGGYDYVCWYQKHPGESPRLIIYDVSRRPSGVSNRFSGSKSGNTASLTISGLQAEDEADYSCSSYTSSNTLIFGGGTKLTVL
Resp: 0.0161
